# target_under_test: recombinant human ALK5 (TGF-βR1) protein (Homo sapiens)
# Construct: purchased Life Technologies PR9075A
# Sequence (P36897 34-503): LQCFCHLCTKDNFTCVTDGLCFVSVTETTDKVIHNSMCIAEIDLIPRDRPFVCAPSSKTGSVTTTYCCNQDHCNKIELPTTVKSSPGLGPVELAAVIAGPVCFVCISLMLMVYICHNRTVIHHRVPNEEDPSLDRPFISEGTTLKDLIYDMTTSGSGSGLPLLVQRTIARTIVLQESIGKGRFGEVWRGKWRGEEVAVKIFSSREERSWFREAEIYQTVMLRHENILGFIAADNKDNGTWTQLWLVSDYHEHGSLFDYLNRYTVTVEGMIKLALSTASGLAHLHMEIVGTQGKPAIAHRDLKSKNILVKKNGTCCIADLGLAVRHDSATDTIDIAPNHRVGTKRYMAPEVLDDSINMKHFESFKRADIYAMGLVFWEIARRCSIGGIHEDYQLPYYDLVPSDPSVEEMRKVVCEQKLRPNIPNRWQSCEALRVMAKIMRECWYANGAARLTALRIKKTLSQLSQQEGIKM
# protocol_details: Biochemical ALK5 (TGF-βR1) assay to measure pKi (LANCE Ultra ULight kinase assay)
# settings: apparent pKi from pIC50 by Cheng-Prusoff, read-out: ALK5 pKi (converted)
readout_label: Ki

Consider the following illustrative entries.
{"compound": "Cc1cccc(-c2nnn(Cc3ccccc3)c2-c2ccc3ncc(N4CCNCC4)cc3c2)n1", "Ki": "0.0398 to 0.316 nM"}
{"compound": "Cc1cccc(-c2n[nH]cc2-c2ccc3ncc(-c4cc[nH]n4)cc3n2)n1", "Ki": "0.0398 to 0.316 nM"}

Hey, can you go through the list below and give me Ki for every item?
1. Cc1cccc(-c2c(-c3ccc4ncc(N5CCC(N6CCN(C)CC6)CC5)cc4c3)nnn2Cc2ccccc2)n1
2. Cc1cccc(-c2[nH]cnc2-c2ccc3ncc(-c4cccc5c4CNCC5)cc3c2)n1
3. Cc1cccc(-c2n[nH]cc2-c2ccc3nccc(Cl)c3n2)n1

[A]
1: 3.98 to 31.6 nM; 2: 3.98 to 31.6 nM; 3: 0.0398 to 0.316 nM

Hey, can you go through the list below and give me Ki for every item?
1. Cc1cccc(-c2[nH]cnc2-c2ccc3ncc(-c4csc(C(=O)OCCN5C[C@@H](C)N[C@@H](C)C5)c4)cc3c2)n1
2. CN[C@H]1CC[C@H](OC(=O)c2cnc3ccc(-c4nc[nH]c4-c4cccc(C)n4)cc3c2)CC1
3. CNCCn1ccc(-c2cnc3ccc(-c4c[nH]nc4-c4ccc(F)c(C)n4)nc3c2)n1
4. Cc1cccc(-c2[nH]cnc2-c2ccc3ncc(-c4cncc(C(=O)O[C@@H]5CCNC5)c4)cc3c2)n1
5. Cc1cccc(-c2[nH]cnc2-c2ccc3ncc(-c4cnn(C5CCCNC5)c4)cc3c2)n1 (stereo not drawn)

[A]
1: 0.0398 to 0.316 nM; 2: 0.0398 to 0.316 nM; 3: 0.0398 to 0.316 nM; 4: 0.0398 to 0.316 nM; 5: < 0.0316 nM

Hey, can you go through the list below and give me Ki for every item?
1. CNC1CCN(c2cnc3ccc(-c4c[nH]nc4-c4cccc(C)n4)nc3c2)CC1
2. Cc1cccc(-c2[nH]cnc2-c2ccc3nccc(C(=O)O[C@H]4CC[C@](C)(N)CC4)c3c2)n1
3. Cc1cccc(-c2[nH]ncc2-c2ccc3ncc(C(=O)O[C@H]4CC[C@@](C)(N)CC4)cc3c2)n1
4. Cc1cccc(-c2[nH]cnc2-c2ccc3ncc(-c4csc(C(=O)OCCN5CCC[C@@H](N)C5)c4)cc3c2)n1

[A]
1. < 0.0316 nM
2. 0.398 to 3.16 nM
3. 0.0398 to 0.316 nM
4. 0.0398 to 0.316 nM

Hey, can you go through the list below and give me Ki for every item?
1. Cc1cccc(-c2[nH]cnc2-c2ccc3nccc(C(=O)O[C@H]4C[C@H](N)C4)c3c2)n1
2. Cc1cccc(-c2[nH]cnc2-c2ccc3ncc(-c4csc(C(=O)OCCN5CCNCC5)c4)cc3c2)n1
3. Cc1cccc(-c2c(-c3ccc4ncc(N5CCC(N(C)C)C5)cc4c3)nnn2Cc2ccccc2)n1 (stereo not drawn)
4. Cc1cccc(-c2[nH]cnc2-c2ccc3ncc(C(=O)OCCC4CCNC4)cc3c2)n1 (stereo not drawn)
5. Cc1cccc(-c2[nH]nnc2-c2ccc3ncc(N4CCC(N(C)C)C4)cc3c2)n1 (racemic)
6. Cc1cccc(-c2[nH]cnc2-c2ccc3ncc(-c4ncc(C(=O)O[C@H]5CCNC5)cn4)cc3c2)n1

[A]
1. 0.398 to 3.16 nM
2. < 0.0316 nM
3. 0.398 to 3.16 nM
4. 0.0398 to 0.316 nM
5. < 0.0316 nM
6. 0.0398 to 0.316 nM

Hey, can you go through the list below and give me Ki for every item?
1. Cc1cccc(-c2[nH]cnc2-c2ccc3ncc(C(=O)OCCCC4CCNCC4)cc3c2)n1
2. Cc1nc(-c2n[nH]cc2-c2ccc3ncc(N4CCC(N5CCN(C)CC5)CC4)cc3c2)ccc1F
3. Cc1cccc(-c2[nH]ncc2-c2ccc3ncc(C(=O)OCCN4CCN(C(C)C)CC4)cc3n2)n1
4. Cc1cccc(-c2[nH]cnc2-c2ccc3ncc(C(=O)O[C@H]4CCNC4)cc3c2)n1
5. Cc1cccc(-c2[nH]cnc2-c2ccc3ncc(-c4ccnc(C(=O)OC5CNC5)c4)cc3c2)n1
6. Cc1cccc(-c2[nH]cnc2-c2ccc3ncc(C4=CC[C@@H](NC(=O)[C@H]5CCCN5)CC4)cc3c2)n1
7. Cc1cccc(-c2[nH]ncc2-c2ccc3nccc(C(=O)OCC4CCNCC4)c3c2)n1
8. CCOC(=O)Cn1cc(-c2cnc3ccc(-c4c[nH]nc4-c4cccc(C)n4)nc3c2)nn1

[A]
1: 0.0398 to 0.316 nM; 2: < 0.0316 nM; 3: 0.0398 to 0.316 nM; 4: 0.398 to 3.16 nM; 5: 0.0398 to 0.316 nM; 6: 0.0398 to 0.316 nM; 7: 0.0398 to 0.316 nM; 8: 0.0398 to 0.316 nM

Hey, can you go through the list below and give me Ki for every item?
1. Cc1cccc(-c2n[nH]cc2-c2ccc3ncc(CO)cc3n2)n1
2. Cc1cccc(-c2[nH]cnc2-c2ccc3ncc(C4=CCC(N(C)C)CC4)cc3c2)n1 (stereo not drawn)

[A]
["0.0398 to 0.316 nM", "< 0.0316 nM"]

---

# target_under_test: recombinant human ALK5 (TGF-βR1) protein (Homo sapiens, UniProt P36897)
# Construct: purchased Life Technologies PR9075A
# protocol_details: Biochemical ALK5 (TGF-βR1) assay to measure pKi (LANCE Ultra ULight kinase assay)
# settings: apparent pKi from pIC50 by Cheng-Prusoff, read-out: ALK5 pKi (converted)
readout_label: Ki

Consider the following illustrative entries.
{"molecule": "CC(=O)Oc1cnc2ccc(-c3cn[nH]c3-c3cccc(C)n3)cc2c1", "Ki": "39.8 to 316 pM"}
{"molecule": "Cc1cccc(-c2n[nH]cc2-c2ccc3ncc(Nc4ccc(N5CCN(C)CC5)cc4)cc3c2)n1", "Ki": "39.8 to 316 pM"}
{"molecule": "Cc1cccc(-c2n[nH]cc2-c2ccc3ncc(-n4cc(-c5ccccc5)nn4)cc3n2)n1", "Ki": "398 to 3160 pM"}
{"molecule": "Cc1cccc(-c2[nH]cnc2-c2ccc3ncc(N4CCNC(CC(=O)OC(C)C)C4)cc3c2)n1 (stereo not shown)", "Ki": "39.8 to 316 pM"}
{"molecule": "Cc1cccc(-c2n[nH]cc2-c2ccc3ncc(C4CCNCC4)cc3n2)n1", "Ki": "398 to 3160 pM"}
{"molecule": "Cc1cccc(-c2[nH]cnc2-c2ccc3ncc(-c4cn5c(n4)CNCC5)cc3c2)n1", "Ki": "39.8 to 316 pM"}
{"molecule": "Cc1cccc(-c2[nH]cnc2-c2ccc3ncc(C4=CCC5(CC4)CNC5)cc3c2)n1", "Ki": "39.8 to 316 pM"}
{"molecule": "Cc1nc(-c2nc3ccccn3c2-c2ccc3ncc(N4CCCNCC4)cc3n2)ccc1F", "Ki": "39.8 to 316 pM"}

Hey, can you go through the list below and give me Ki for every item?
1. CNC1CCN(c2cnc3ccc(-c4c[nH]nc4-c4ccc(F)c(C)n4)nc3c2)CC1
2. CNCc1ccnc2ccc(-c3nc[nH]c3-c3cccc(C)n3)cc12
3. CCc1cccc(-c2n[nH]cc2-c2ccc3ncc(-c4ccn(CCNC)n4)cc3n2)n1
4. Cc1cccc(-c2n[nH]cc2-c2ccc3ncc(N4CCN(CCN(C)C)CC4)cc3n2)n1
5. Cc1cccc(-c2n[nH]cc2-c2ccc3ncc(-c4nc(C(F)(F)F)n5c4CNCC5)cc3n2)n1
6. Cc1cccc(-c2nc3ccccn3c2-c2ccc3ncc(N4CCC(N(C)C)CC4)cc3n2)n1

[A]
1: < 31.6 pM; 2: 398 to 3160 pM; 3: 39.8 to 316 pM; 4: < 31.6 pM; 5: 39.8 to 316 pM; 6: 39.8 to 316 pM

Hey, can you go through the list below and give me Ki for every item?
1. Cc1cccc(-c2[nH]cnc2-c2ccc3ncc(C4=CCN(Cc5ccccc5)C4)cc3c2)n1
2. Cc1cccc(-c2[nH]ncc2-c2ccc3ncc(C(=O)OC[C@@H]4CCCCN4)cc3c2)n1

[A]
1: < 31.6 pM; 2: 39.8 to 316 pM
